Values were extracted from patent US20240398773A1.

Experiment: Study CL-003 in subjects with tinea pedis, plasma PK
Assay type: in vivo, human
Conditions: human, plasma, Mid Dose 600 mg/150 mg, Day 14
Metric: Tmax

| Structure Notation | Measured |
| --- | --- |
| O[C@@](Cn1cnnn1)(c1ccc(F)cc1F)C(F)(F)c1ccc(-c2ccc(OCC(F)(F)F)cc2)cn1 | 5 h |

====

Test: Study CL-001 single-dose escalation in healthy subjects, plasma PK
Format: in vivo, human
Settings: both sexes, human, plasma, po, 40 mg, Cohort 4, single oral 40 mg, fasted; median; read-out: Tmax
Metric: Tmax (h)

| Structure Notation | Unit | Measured |
| --- | --- | --- |
| O[C@@](Cn1cnnn1)(c1ccc(F)cc1F)C(F)(F)c1ccc(-c2ccc(OCC(F)(F)F)cc2)cn1 | h | 10 |
